Listed here are binders together with their documented ELISA signal.
assayedSystem: T1, Recombinant Human DLL4 (delta-like protein 4) (human, UniProt Q9NR61 27-524)
T1 construct: Bought recombinant human DLL4 (R&D Systems Cat#1506-D4/CF); also called rHuman DLL4; Delta-like 4
assayExplanation: ELISA, DLL4 coated on plate, Fab at 400 nM
Please reply with the value in numeric form only.

Fab VH1-46_IGHD6-6*01_IGHJ1*01 S102A/S103P/S104F/H111F & L6_IGKJ1*01 S30D (Fab, V domains shown, Tested as a Fab; also called APFF & S30D) VH: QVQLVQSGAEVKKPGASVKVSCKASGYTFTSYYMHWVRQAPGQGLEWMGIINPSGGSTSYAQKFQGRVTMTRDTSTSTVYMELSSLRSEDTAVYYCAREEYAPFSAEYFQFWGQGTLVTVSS VL: EIVLTQSPATLSLSPGERATLSCRASQSVDSYLAWYQQKPGQAPRLLIYDASNRATGIPARFSGSGSGTDFTLTISSLEPEDFAVYYCQQRSNWPPWTFGQGTKVEIKR | 0.13
Fab VH1-46_IGHD6-6*01_IGHJ1*01 S102A/S103P/S104F/H111F & L6_IGKJ1*01 S28H (Fab, V domains shown, Tested as a Fab; also called APFF & S28H) VH: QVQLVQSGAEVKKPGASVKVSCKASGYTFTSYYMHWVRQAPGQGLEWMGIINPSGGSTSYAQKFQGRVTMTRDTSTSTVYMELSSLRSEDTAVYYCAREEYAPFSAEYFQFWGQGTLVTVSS VL: EIVLTQSPATLSLSPGERATLSCRASQHVSSYLAWYQQKPGQAPRLLIYDASNRATGIPARFSGSGSGTDFTLTISSLEPEDFAVYYCQQRSNWPPWTFGQGTKVEIKR | 0.13
Fab VH1-46_IGHD6-6*01_IGHJ1*01 S102A/S103P/S104F/H111F & L6_IGKJ1*01 S28N (Fab, V domains shown, Tested as a Fab; also called APFF & S28N) VH: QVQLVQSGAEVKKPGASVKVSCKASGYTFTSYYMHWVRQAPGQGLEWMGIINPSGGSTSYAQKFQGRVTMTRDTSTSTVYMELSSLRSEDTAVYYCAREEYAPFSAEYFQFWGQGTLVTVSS VL: EIVLTQSPATLSLSPGERATLSCRASQNVSSYLAWYQQKPGQAPRLLIYDASNRATGIPARFSGSGSGTDFTLTISSLEPEDFAVYYCQQRSNWPPWTFGQGTKVEIKR | 0.19

Moving on to another binder below.
Given Fab VH1-46_IGHD6-6*01_IGHJ1*01 S102A/S103P/S104F/H111F & L6_IGKJ1*01 S31H (Fab, V domains shown, Tested as a Fab; also called APFF & S31H) VH: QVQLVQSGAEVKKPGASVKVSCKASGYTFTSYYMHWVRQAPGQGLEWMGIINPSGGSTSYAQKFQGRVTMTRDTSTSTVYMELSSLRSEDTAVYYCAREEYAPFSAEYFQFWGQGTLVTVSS VL: EIVLTQSPATLSLSPGERATLSCRASQSVSHYLAWYQQKPGQAPRLLIYDASNRATGIPARFSGSGSGTDFTLTISSLEPEDFAVYYCQQRSNWPPWTFGQGTKVEIKR , state its recorded ELISA signal.
0.2
